# maps each entry to its remaining at 100 h, 5500 µM
assay: pH stability; assay type: physicochemical; settings: tris-hcl buffer/ethanol 5:1, pH 8.5, pH 8.5 (100 mM tris-HCl buffer), 5.5 mM, buffer/ethanol 5:1 v/v, read-out: Residual amounts (%) after 100 hours
Text: […]
# unit: % | format: bare number

Observe how each entry below is paired with its result.
compound	remaining at 100 h, 5500 µM / %
Cc1c(C)c2c(c(C)c1O)CCC(C)(CO[C@H]1O[C@H](CO)[C@@H](O)[C@H](O)[C@H]1O)O2 (stereo partly shown)	20
Cc1c(C)c2c(c(C)c1O)CCC(C)(C(=O)O)O2 (stereo not shown) [Trolox, reference compound]	13
Cc1c(C)c2c(c(C)c1O)CCC(C)(CCO)O2 (racemic) [formula (6), reference compound]	3
Cc1c(C)c2c(c(C)c1O)CCC(C)(CCO[C@H]1O[C@H](CO)[C@@H](O[C@H]3O[C@H](CO)[C@@H](O)[C@H](O)[C@H]3O)[C@H](O)[C@H]1O)O2 (stereo partly shown)	2
Cc1c(C)c2c(c(C)c1O)CCC(C)(CO)O2 (racemic) [formula (3), reference compound]	7

Input: Identify remaining at 100 h, 5500 µM associated with the compound Cc1c(C)c2c(c(C)c1O)CCC(C)(CO[C@H]1O[C@H](CO)[C@@H](O[C@H]3O[C@H](CO)[C@@H](O)[C@H](O)[C@H]3O)[C@H](O)[C@H]1O)O2 (stereo partly shown)
Output: 19

Input: Read off the recorded remaining at 100 h, 5500 µM for Cc1c(C)c2c(c(C)c1O)CCC(C)(CCO[C@H]1O[C@H](CO)[C@@H](O)[C@H](O)[C@H]1O)O2 (stereo partly shown)
Output: 7
